ENDPOINT: melting point

Query :: Respond only with melting point recorded for `COc1cc2c(Nc3cccc(Br)c3)c(C#N)cnc2c(OC)c1OC`
Result :: 211 to 213 °C

###

ENDPOINT: melting point

Query :: Give reported melting point value for CN(C)CC#CC(=O)Nc1ccc2ncc(C#N)c(Nc3cccc(Br)c3)c2c1 [Example 59]
Result :: 114 to 118 °C

Query :: Using the record for COc1cccc2c(Nc3cccc(N(C)C)c3)c(C#N)cnc12 [Example 277] , state its measured melting point.
Result :: 222 to 225 °C

Query :: Using known records, supply melting point for COc1ccc(Cl)cc1Nc1c(C#N)cnc2cc(OC)c(OC)cc12 [Example 372]
Result :: 200 to 202 °C

Query :: Kindly indicate its recorded melting point. Item: COc1cc2ncc(C#N)c(Nc3cc(Cl)ccc3O)c2cc1OC [Example 290]
Result :: > 250 °C

Query :: Indicate its recorded melting point; the compound in question is COc1ccc2ncc(C#N)c(Nc3cc(O)c(Cl)cc3F)c2c1 [Example 285]
Result :: 228 to 230 °C

###

Reported melting point values for the following molecules.

Query :: Tell me melting point reported for `COc1cc2ncc(C#N)c(Nc3cc(Cl)c(O)c(Cl)c3)c2cc1OC`
Result :: > 250 °C

Query :: Consider the molecule `CN1CCN(CC#CC(=O)Nc2ccc3ncc(C#N)c(Nc4cccc(Br)c4)c3c2)CC1` and give its recorded melting point.
Result :: 190 °C (dec.)

Query :: Supply melting point value. Item: `COc1cc2ncc(C#N)c(Nc3ccc(O)cc3Cl)c2cc1OC`
Result :: > 250 °C

Query :: Return value of melting point for input `COc1cc2c(Nc3cccc(Br)c3)c(C#N)cnc2cc1OCCCN1CCOCC1` , no commentary.
Result :: 115 to 118 °C

Query :: Return the recorded melting point value; entry: `COc1cc2ncc(C#N)c(Nc3ccc(F)cc3)c2cc1OC`
Result :: 282 to 285 °C

---
Query :: State, in one line, measured melting point of `COc1cc2ncc(C#N)c(Nc3ccc(Cl)cc3C)c2cc1OC`
Result :: 227 to 229 °C

###

Structures can show the parent of a compound that is named as a salt.
ENDPOINT: melting point

Query :: Entry `COc1cc2ncc(C#N)c(Nc3cccc(CO)c3)c2cc1OC` needs its melting point filled in; supply it.
Result :: 250 to 255 °C

Query :: Determine its reported melting point: `COc1cc2ncc(C#N)c(Nc3cccc(N(C)C)c3)c2cc1OC`
Result :: 246 to 249 °C

Query :: Kindly indicate its recorded melting point. Item: `COc1ccc(Nc2c(C#N)cnc3cc(OC)c(OC)cc23)c(C)c1`
Result :: > 131 °C (dec.)

Query :: Could you please provide reported melting point for `COc1cc2ncc(C#N)c(Nc3ccc(C(F)(F)F)cc3)c2cc1OC` ? Thanks!
Result :: 116 to 118 °C

Query :: Report measured melting point; entry is `COc1cc2ncc(C#N)c(Nc3ccc(Cl)cc3F)c2cc1OC`
Result :: 139 to 141 °C

Query :: Please supply the value of reported melting point for the item `COc1cccc2c(Nc3c(F)cc(F)cc3F)c(C#N)cnc12`
Result :: 297 °C (dec.)

Query :: Entry `COc1cc2c(Nc3cc(O)c(Cl)cc3F)c(C#N)cnc2c(OC)c1OC` needs its melting point filled in; supply it.
Result :: 223 to 225 °C

Query :: Give the reported melting point for this molecule. `COc1cccc2c(Nc3ccc(Cl)cc3F)c(C#N)cnc12`
Result :: 127 °C (dec.)

Others:
Query :: For COc1cc2c(Nc3ccc(Cl)cc3F)c(C#N)cnc2cc1OCc1ccccc1 (as salt: hydrochloride) , write its melting point.
Result :: 241 to 243 °C

###

melting point values, listed per item

// solved cases for melting point follow
Query :: Respond only with melting point recorded for COc1cc2ncc(C#N)c(Nc3ccccc3CCO)c2cc1OC [Example 301]
Result :: 159 to 162 °C

Query :: For the molecule N#Cc1cnc2cc3c(cc2c1Nc1cccc(Br)c1)OCO3 [Example 40] , give its reported melting point.
Result :: 201 to 205 °C

Query :: Report melting point, nothing else, for this molecule: COc1cc2ncc(C#N)c(Nc3ccc(C)cc3O)c2cc1OC [Example 287]
Result :: > 250 °C

Query :: Give the reported value of melting point for this record: COc1cc2ncc(C#N)c(Nc3cccc(C(F)(F)F)c3)c2cc1OC [Example 42]
Result :: 190 to 193 °C

Query :: Tell us which melting point value is on record for CN(C)CC#CC(=O)Nc1ccc2ncc(C#N)c(Nc3ccc(F)c(Br)c3)c2c1 [Example 197]
Result :: 228 to 231 °C

Query :: Using known records, supply melting point for COc1cc2ncc(C#N)c(Nc3ccc(C)c(Cl)c3)c2cc1OC [Example 370]
Result :: > 250 °C

Query :: State, in one line, measured melting point of COc1cc2c(Nc3ccc(O)cc3C)c(C#N)cnc2cc1OCCCN1CCOCC1 [Example 312]
Result :: 120 to 126 °C

Query :: Supply melting point value. Item: COc1ccc2c(Nc3ccc(C)c(O)c3)c(C#N)cnc2c1 [Example 281]
Result :: > 250 °C

Would you kindly look at the next entry?
Query :: Please indicate melting point recorded for COc1ccc2ncc(C#N)c(Nc3ccc(Cl)cc3F)c2c1 [Example 283]
Result :: > 250 °C

###

ENDPOINT: melting point

Query :: Answer with reported melting point of `COc1cc2ncc(C#N)c(Nc3ccc(CCO)cc3)c2cc1OC`
Result :: 208 to 210 °C

Query :: Report measured melting point; entry is `COc1cc2ncc(C#N)c(Nc3ccc(C)c(Br)c3)c2cc1OC`
Result :: 292 to 294 °C

Query :: Respond only with melting point recorded for `COc1cc2c(Nc3cccc(N(C)C)c3)c(C#N)cnc2c(OC)c1OC`
Result :: 142 to 144 °C

Read the next record carefully.
Query :: State its melting point: `COc1cc2ncc(C#N)c(Nc3ccc(O)cc3O)c2cc1OC`
Result :: > 250 °C

###

ENDPOINT: melting point

Query :: Specify measured melting point for COc1cc2ncc(C#N)c(Nc3cccc(C(N)=O)c3)c2cc1OC [Example 247] .
Result :: 253 to 255 °C

Query :: Let me know recorded melting point for COc1cc2ncc(C#N)c(Nc3cc(C)ccc3O)c2cc1OC [Example 295] , thanks.
Result :: 198 to 200 °C

Query :: Supply measured melting point of N#Cc1cnc2ccc(NC(=O)C#CCO)cc2c1Nc1cccc(Br)c1 [Example 57] in your reply.
Result :: 253 to 254 °C (dec.)

Now consider a different compound.
Query :: For N#Cc1cnc2cc(O)c(O)cc2c1Nc1ccc(Cl)cc1F [Example 373] , write its melting point.
Result :: 270 to 272 °C

###

Reported melting point is given for each of the following compounds.

Answered examples (8):
Query :: State its melting point: `COc1cc2ncc(C#N)c(Nc3cccc(C(=O)O)c3C)c2cc1OC`
Result :: 242 to 245 °C

Query :: Name the recorded melting point of the compound listed here: `CCN1CCN(CC#CC(=O)Nc2ccc3ncc(C#N)c(Nc4cccc(Br)c4)c3c2)CC1`
Result :: 161 °C (dec.)

Query :: # return recorded melting point for entry `CC(C)N(C)CC#CC(=O)Nc1ccc2ncc(C#N)c(Nc3cccc(Br)c3)c2c1`
Result :: 124 to 126 °C

Query :: Annotate the compound `N#Cc1cnc2ccc(NC(=O)C#CCN3CCOCC3)cc2c1Nc1cccc(Br)c1` with its measured melting point.
Result :: 112 to 115 °C

Query :: // Input: `COc1cccc2c(Nc3cccc(Br)c3)c(C#N)cnc12` . Output its melting point only.
Result :: 210 to 212 °C

Query :: Tell us which melting point value is on record for `COc1cc2ncc(C#N)c(Nc3ccc(C(N)=O)cc3)c2cc1OC`
Result :: > 250 °C

Query :: Give the reported melting point for this compound. CN(C)CC#CC(=O)Nc1ccc2ncc(C#N)c(Nc3cccc(Br)c3)c2c1 [Example 329]
Result :: 180 °C (dec.)

Query :: For `COc1ccc2c(Nc3cc(O)c(Cl)cc3F)c(C#N)cnc2c1` , write its melting point.
Result :: 240 °C (dec.)

New cases:
Query :: Give reported melting point value for `CCN(CC)CC#CC(=O)Nc1ccc2ncc(C#N)c(Nc3cccc(Br)c3)c2c1`
Result :: 133 to 135 °C

Query :: Dear colleague, please send me the reported melting point for `N#Cc1cnc2ccc(N)cc2c1Nc1ccc(F)c(Br)c1` when you can.
Result :: 210 to 212 °C

###

Documented melting point across a set of compounds

// worked examples, melting point included
Query :: Give me measured melting point, please, for this compound: `COc1cc2ncc(C#N)c(Nc3c(C)cccc3O)c2cc1OC`
Result :: 245 to 247 °C

Query :: Give the reported melting point for this compound. `CCc1ccc(Nc2c(C#N)cnc3cc(OC)c(OC)cc23)cc1`
Result :: 248 to 250 °C

Query :: Entry `COc1ccc(OC)c2c(Nc3ccc(C)c(O)c3)c(C#N)cnc12` needs its melting point filled in; supply it.
Result :: 240 to 242 °C

Now examine the next entry.
Query :: Provide only the value of recorded melting point for `COc1cc2c(Nc3ccc(Cl)cc3F)c(C#N)cnc2c(OC)c1OC`
Result :: 166 to 168 °C
